- Assay Method Text: Half life of compound in PBS buffer at pH 7.4 at 200 uM by HPLC analysis
- Format: physicochemical
Measured half-life at 200 µM, listed per entry.
Give just the numeric value; h need not be written.

N[C@@H](CC(=O)OC[C@H]1O[C@@H](n2cc(F)c(=O)[nH]c2=O)C[C@@H]1O)C(=O)O : 4.77
N[C@@H](CCC(=O)OC[C@H]1O[C@@H](n2cc(F)c(=O)[nH]c2=O)C[C@@H]1O)C(=O)O : 4.3

Turning now to a further compound:
Form: compound = "CC(C)[C@H](N)C(=O)OC[C@H]1O[C@@H](n2cc(F)c(=O)[nH]c2=O)C[C@@H]1OC(=O)[C@@H](N)C(C)C" ; half-life at 200 µM = 1.76

* * *

- Assay Method Text: Drug uptake in Xenopus laevis oocytes at 0.5 mM incubated for 10 mins by HPLC analysis
- Assay type: ADME, cell-based
- Run Conditions: oocyte, 500 µM
Endpoint Label: Drug uptake (nmol/mg/min)
Give just the numeric value; nmol/mg/min need not be written.

As a guide, the following entries are already answered.
N[C@@H](CCC(=O)OC[C@H]1O[C@@H](n2cc(F)c(=O)[nH]c2=O)C[C@@H]1O)C(=O)O : 0.35
N[C@@H](CC(=O)O[C@H]1C[C@H](n2cc(F)c(=O)[nH]c2=O)O[C@@H]1CO)C(=O)O : 0.36
N[C@@H](CC(=O)OC[C@H]1O[C@@H](n2cc(F)c(=O)[nH]c2=O)C[C@@H]1O)C(=O)O : 0.32

Form: molecule = "N[C@@H](CC(=O)OC[C@H]1O[C@@H](n2cc(F)c(=O)[nH]c2=O)C[C@@H]1OC(=O)C[C@H](N)C(=O)O)C(=O)O" ; Drug uptake = 0.34

* * *

- Study System: Solute carrier family 15 member 1 (Homo sapiens, UniProt P46059)
- Sequence (P46059 whole entry): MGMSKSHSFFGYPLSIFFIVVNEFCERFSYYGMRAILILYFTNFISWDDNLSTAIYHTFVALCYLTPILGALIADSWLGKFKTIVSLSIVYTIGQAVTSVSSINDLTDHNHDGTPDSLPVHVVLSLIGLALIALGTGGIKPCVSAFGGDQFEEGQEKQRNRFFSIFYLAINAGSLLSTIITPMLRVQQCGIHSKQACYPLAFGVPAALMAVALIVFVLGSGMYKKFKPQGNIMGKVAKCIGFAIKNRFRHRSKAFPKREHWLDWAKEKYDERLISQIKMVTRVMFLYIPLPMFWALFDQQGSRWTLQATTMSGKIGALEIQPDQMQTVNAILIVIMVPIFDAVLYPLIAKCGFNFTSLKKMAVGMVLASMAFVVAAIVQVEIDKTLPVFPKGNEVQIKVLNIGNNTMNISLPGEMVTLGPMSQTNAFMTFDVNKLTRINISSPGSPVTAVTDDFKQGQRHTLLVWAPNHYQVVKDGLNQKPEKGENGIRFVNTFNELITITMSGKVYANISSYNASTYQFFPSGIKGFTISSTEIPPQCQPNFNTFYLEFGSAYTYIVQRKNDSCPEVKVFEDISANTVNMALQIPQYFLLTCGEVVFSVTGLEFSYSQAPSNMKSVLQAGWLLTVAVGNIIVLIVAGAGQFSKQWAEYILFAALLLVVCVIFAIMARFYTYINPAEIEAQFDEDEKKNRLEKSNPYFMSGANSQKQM
- Assay Method Text: Substrate activity at PEPT1 (unknown origin) expressed in MDCK cells assessed as PEPT1 mediated drug uptake at 0.5 mM incubated for 10 mins by HPLC analysis
- Format: ADME, cell-based
- Run Conditions: 500 µM
Endpoint Label: Drug uptake

N[C@@H](CC(=O)OC[C@H]1O[C@@H](n2cc(F)c(=O)[nH]c2=O)C[C@@H]1O)C(=O)O : < 0.04 nmol/mg/min
CC(C)[C@H](N)C(=O)O[C@H]1C[C@H](n2cc(F)c(=O)[nH]c2=O)O[C@@H]1CO : 1.23 nmol/mg/min
CC(C)[C@H](N)C(=O)OC[C@H]1O[C@@H](n2cc(F)c(=O)[nH]c2=O)C[C@@H]1OC(=O)[C@@H](N)C(C)C : 1.11 nmol/mg/min
N[C@@H](CCC(=O)OC[C@H]1O[C@@H](n2cc(F)c(=O)[nH]c2=O)C[C@@H]1OC(=O)CC[C@H](N)C(=O)O)C(=O)O : < 0.04 nmol/mg/min
CC(C)[C@H](N)C(=O)OC[C@H]1O[C@@H](n2cc(F)c(=O)[nH]c2=O)C[C@@H]1O : 1.78 nmol/mg/min

Drug uptake of "N[C@@H](CCC(=O)OC[C@H]1O[C@@H](n2cc(F)c(=O)[nH]c2=O)C[C@@H]1O)C(=O)O" , assay on Solute carrier family 15 member 1 (Homo sapiens, UniProt P46059), is < 0.04 nmol/mg/min

Drug uptake of "N[C@@H](CC(=O)O[C@H]1C[C@H](n2cc(F)c(=O)[nH]c2=O)O[C@@H]1CO)C(=O)O" , assay on Solute carrier family 15 member 1 (Homo sapiens, UniProt P46059), is < 0.04 nmol/mg/min

Drug uptake of "O=c1[nH]c(=O)n([C@H]2C[C@H](O)[C@@H](CO)O2)cc1F" , assay on Solute carrier family 15 member 1 (Homo sapiens, UniProt P46059), is < 0.04 nmol/mg/min

Drug uptake of "N[C@@H](CCC(=O)O[C@H]1C[C@H](n2cc(F)c(=O)[nH]c2=O)O[C@@H]1CO)C(=O)O" , assay on Solute carrier family 15 member 1 (Homo sapiens, UniProt P46059), is < 0.04 nmol/mg/min

Drug uptake of "N[C@@H](CC(=O)OC[C@H]1O[C@@H](n2cc(F)c(=O)[nH]c2=O)C[C@@H]1OC(=O)C[C@H](N)C(=O)O)C(=O)O" , assay on Solute carrier family 15 member 1 (Homo sapiens, UniProt P46059), is < 0.04 nmol/mg/min

* * *

- Study System: Solute carrier family 15 member 1 (Homo sapiens, UniProt P46059)
- Assay Method Text: Substrate activity at PEPT1 (unknown origin) expressed in MDCK cells assessed as inhibition of gly-sar uptake incubated for 10 mins by HPLC/MS/MS analysis
- Assay type: cell-based
Endpoint Label: IC50 (mM)
Give just the numeric value; mM need not be written.

CC(C)[C@H](N)C(=O)OC[C@H]1O[C@@H](n2cc(F)c(=O)[nH]c2=O)C[C@@H]1O : 1.12
N[C@@H](CCC(=O)O[C@H]1C[C@H](n2cc(F)c(=O)[nH]c2=O)O[C@@H]1CO)C(=O)O : 13
CC(C)[C@H](N)C(=O)O[C@H]1C[C@H](n2cc(F)c(=O)[nH]c2=O)O[C@@H]1CO : 1.89
O=c1[nH]c(=O)n([C@H]2C[C@H](O)[C@@H](CO)O2)cc1F : 12.2
N[C@@H](CC(=O)O[C@H]1C[C@H](n2cc(F)c(=O)[nH]c2=O)O[C@@H]1CO)C(=O)O : 13.9

Form: compound = "N[C@@H](CCC(=O)OC[C@H]1O[C@@H](n2cc(F)c(=O)[nH]c2=O)C[C@@H]1O)C(=O)O" ; IC50 = 11.5

Form: compound = "N[C@@H](CC(=O)OC[C@H]1O[C@@H](n2cc(F)c(=O)[nH]c2=O)C[C@@H]1O)C(=O)O" ; IC50 = 10.2

Form: compound = "CC(C)[C@H](N)C(=O)OC[C@H]1O[C@@H](n2cc(F)c(=O)[nH]c2=O)C[C@@H]1OC(=O)[C@@H](N)C(C)C" ; IC50 = 2.24

* * *

- Assay Method Text: Drug uptake in MDCK cells incubated for 10 mins by HPLC analysis
- Assay type: ADME, cell-based, Canis lupus familiaris
- Run Conditions: dog, 500 µM, dose 0.5 mM
Endpoint Label: Drug uptake

As a guide, the following entries are already answered.
CC(C)[C@H](N)C(=O)OC[C@H]1O[C@@H](n2cc(F)c(=O)[nH]c2=O)C[C@@H]1O : 0.41 nmol/mg/min
N[C@@H](CC(=O)OC[C@H]1O[C@@H](n2cc(F)c(=O)[nH]c2=O)C[C@@H]1OC(=O)C[C@H](N)C(=O)O)C(=O)O : < 0.04 nmol/mg/min
CC(C)[C@H](N)C(=O)OC[C@H]1O[C@@H](n2cc(F)c(=O)[nH]c2=O)C[C@@H]1OC(=O)[C@@H](N)C(C)C : 0.44 nmol/mg/min
N[C@@H](CC(=O)O[C@H]1C[C@H](n2cc(F)c(=O)[nH]c2=O)O[C@@H]1CO)C(=O)O : < 0.04 nmol/mg/min
O=c1[nH]c(=O)n([C@H]2C[C@H](O)[C@@H](CO)O2)cc1F [FLOXURIDINE] : < 0.04 nmol/mg/min
N[C@@H](CCC(=O)OC[C@H]1O[C@@H](n2cc(F)c(=O)[nH]c2=O)C[C@@H]1OC(=O)CC[C@H](N)C(=O)O)C(=O)O : < 0.04 nmol/mg/min
CC(C)[C@H](N)C(=O)O[C@H]1C[C@H](n2cc(F)c(=O)[nH]c2=O)O[C@@H]1CO : 0.43 nmol/mg/min
N[C@@H](CCC(=O)O[C@H]1C[C@H](n2cc(F)c(=O)[nH]c2=O)O[C@@H]1CO)C(=O)O : < 0.04 nmol/mg/min
N[C@@H](CC(=O)OC[C@H]1O[C@@H](n2cc(F)c(=O)[nH]c2=O)C[C@@H]1O)C(=O)O : < 0.04 nmol/mg/min

Turning now to a further compound:
Form: compound = "N[C@@H](CCC(=O)OC[C@H]1O[C@@H](n2cc(F)c(=O)[nH]c2=O)C[C@@H]1O)C(=O)O" ; Drug uptake = < 0.04 nmol/mg/min

* * *

- Test system: thymidine phosphorylase
- Assay Method Text: Half life of compound in thymidine phosphorylase buffer at 300 uM by HPLC analysis
- Format: physicochemical
Kindly apply the following: fulfilled if half-life at 300 µM is less than 5 h, not fulfilled in every other case.

Illustrative cases are given below, each with its answer.
O=c1[nH]c(=O)n([C@H]2C[C@H](O)[C@@H](CO)O2)cc1F : fulfilled
N[C@@H](CCC(=O)OC[C@H]1O[C@@H](n2cc(F)c(=O)[nH]c2=O)C[C@@H]1O)C(=O)O : fulfilled
N[C@@H](CCC(=O)O[C@H]1C[C@H](n2cc(F)c(=O)[nH]c2=O)O[C@@H]1CO)C(=O)O : fulfilled
CC(C)[C@H](N)C(=O)OC[C@H]1O[C@@H](n2cc(F)c(=O)[nH]c2=O)C[C@@H]1O : not fulfilled
N[C@@H](CC(=O)O[C@H]1C[C@H](n2cc(F)c(=O)[nH]c2=O)O[C@@H]1CO)C(=O)O : fulfilled
N[C@@H](CCC(=O)OC[C@H]1O[C@@H](n2cc(F)c(=O)[nH]c2=O)C[C@@H]1OC(=O)CC[C@H](N)C(=O)O)C(=O)O : fulfilled
CC(C)[C@H](N)C(=O)O[C@H]1C[C@H](n2cc(F)c(=O)[nH]c2=O)O[C@@H]1CO : not fulfilled

# evaluate next
Prompt line: Answer whether the compound "CC(C)[C@H](N)C(=O)OC[C@H]1O[C@@H](n2cc(F)c(=O)[nH]c2=O)C[C@@H]1OC(=O)[C@@H](N)C(C)C" has half-life at 300 µM strictly less than 5 h
Response line: fulfilled
